TARGET DESC: growth hormone secretagogue receptor 1a (GHSR) (Homo sapiens, UniProt Q92847)
TEST METHOD NOTES: biochemical
Where a SMILES comes first, the peptide text is derived from it. [ ]: non-standard residue; d: D form. The star is where a group is joined. 1Nal = N[C@@H](Cc1cccc2ccccc12)C(=O)O; Nicotinoyl(6-F) = O=C(c1ccc(F)nc1)*; Cha = N[C@@H](CC1CCCCC1)C(=O)O; NMeS = CN[C@@H](CO)C(=O)O; Nle = CCCC[C@H](N)C(=O)O; Dap = NC[C@H](N)C(=O)O; Inp = O=C(O)C1CCNCC1
Labelling: IC50 reported below 1 nM becomes yes; at or above becomes no.

COMPOUND	GROUP LABEL
C[C@@H](O)[C@H](NC(=O)[C@@H]1CCCN1C(=O)[C@H](CO)NC(=O)[C@H](CC1CCCCC1)NC(=O)[C@H](Cc1cccc2ccccc12)NC(=O)[C@H](CNC(=O)c1ccc(F)nc1)NC(=O)[C@H](CO)NC(=O)C1CCNCC1)C(N)=O [compound 14, Inp-S-Dpr(6-FN)-1Nal-Cha-SPT-NH2] (H-[Inp]S[Dap](Nicotinoyl(6-F))[1Nal][Cha]SPT-NH2)	no
CC(C)C[C@H](NC(=O)[C@H](Cc1cccc2ccccc12)NC(=O)[C@H](CNC(=O)c1ccc(F)nc1)NC(=O)[C@H](CO)NC(=O)C1CCNCC1)C(=O)N(C)[C@@H](CO)C(=O)N1CCC[C@H]1C(=O)N[C@H](C(N)=O)[C@@H](C)O [compound 22, Inp-S-Dpr(6-FN)-1Nal-L-S(N-Me)-PT-NH2] (H-[Inp]S[Dap](Nicotinoyl(6-F))[1Nal]L[NMeS]PT-NH2)	no
CC(C)C[C@H](NC(=O)[C@H](Cc1cccc2ccccc12)NC(=O)[C@H](CNC(=O)c1ccc(F)nc1)NC(=O)[C@H](CO)NC(=O)C1CCNCC1)C(=O)N[C@H](C(=O)N1CCC[C@H]1C(=O)N[C@H](C(N)=O)[C@@H](C)O)[C@@H](C)O [compound 16, Inp-S-Dpr(6-FN)-1Nal-LTPT-NH2] (H-[Inp]S[Dap](Nicotinoyl(6-F))[1Nal]LTPT-NH2)	yes
CC(C)C[C@H](NC(=O)[C@H](Cc1cccc2ccccc12)NC(=O)[C@H](CNC(=O)c1ccc(F)nc1)NC(=O)[C@H](CO)NC(=O)C1CCNCC1)C(=O)N[C@H](CO)C(=O)N1CCC[C@H]1C(=O)N[C@H](C(N)=O)[C@@H](C)O [compound 10, Inp-S-Dpr(6-FN)-1Nal-LsPT-NH2] (H-[Inp]S[Dap](Nicotinoyl(6-F))[1Nal]L[dS]PT-NH2)	no
CC(C)C[C@H](NC(=O)[C@H](Cc1cccc2ccccc12)NC(=O)[C@H](CNC(=O)c1ccc(F)nc1)NC(=O)[C@H](CO)NC(=O)C1CCNCC1)C(=O)N[C@@H](CS)C(=O)N1CCC[C@H]1C(=O)N[C@H](C(N)=O)[C@@H](C)O [compound 15, Inp-S-Dpr(6-FN)-1Nal-LCPT-NH2] (H-[Inp]S[Dap](Nicotinoyl(6-F))[1Nal]LCPT-NH2)	no
CCCC[C@H](NC(=O)[C@H](Cc1cccc2ccccc12)NC(=O)[C@H](CNC(=O)c1ccc(F)nc1)NC(=O)[C@H](CO)NC(=O)C1CCNCC1)C(=O)N[C@@H](CO)C(=O)N1CCC[C@H]1C(=O)N[C@H](C(N)=O)[C@@H](C)O [compound 13, Inp-S-Dpr(6-FN)-1Nal-Nle-SPT-NH2] (H-[Inp]S[Dap](Nicotinoyl(6-F))[1Nal][Nle]SPT-NH2)	no
CC(C)C[C@H](NC(=O)[C@H](Cc1cccc2ccccc12)NC(=O)[C@H](CNC(=O)c1ccc(F)nc1)NC(=O)[C@H](CO)NC(=O)C1CCNCC1)C(=O)N[C@@H](C(=O)N1CCC[C@H]1C(=O)N[C@H](C(N)=O)[C@@H](C)O)[C@H](C)O [compound 12, Inp-S-Dpr(6-FN)-1Nal-LtPT-NH2] (H-[Inp]S[Dap](Nicotinoyl(6-F))[1Nal]L[dT]PT-NH2)	no
CC(C)C[C@H](NC(=O)[C@H](Cc1cccc2ccccc12)NC(=O)[C@H](CNC(=O)c1ccc(F)nc1)NC(=O)[C@H](CO)NC(=O)C1CCNCC1)C(=O)N[C@@H](CCC(N)=O)C(=O)N1CCC[C@H]1C(=O)N[C@H](C(N)=O)[C@@H](C)O [compound 19, Inp-S-Dpr(6-FN)-1Nal-LQPT-NH2] (H-[Inp]S[Dap](Nicotinoyl(6-F))[1Nal]LQPT-NH2)	no
CC(C)C[C@@H](NC(=O)[C@H](Cc1cccc2ccccc12)NC(=O)[C@H](CNC(=O)c1ccc(F)nc1)NC(=O)[C@H](CO)NC(=O)C1CCNCC1)C(=O)N[C@@H](CO)C(=O)N1CCC[C@H]1C(=O)N[C@H](C(N)=O)[C@@H](C)O [compound 9, Inp-S-Dpr(6-FN)-1Nal-lSPT-NH2] (H-[Inp]S[Dap](Nicotinoyl(6-F))[1Nal][dL]SPT-NH2)	no
CC(C)C[C@H](NC(=O)[C@H](Cc1cccc2ccccc12)NC(=O)[C@H](CNC(=O)c1ccc(F)nc1)NC(=O)[C@H](CO)NC(=O)C1CCNCC1)C(=O)N[C@@H](CO)C(=O)N1CCC[C@H]1C(=O)N[C@H](C(N)=O)[C@@H](C)O [compound 1] (H-[Inp]S[Dap](Nicotinoyl(6-F))[1Nal]LSPT-NH2)	yes

Each recorded value in this set is attributed to paper PMC10353549.
